target: T1, recombinant human VEGF 165 isoform (human, UniProt P15692 27-191); assay: competitive ELISA in solution, 10 pM hVEGF-165, free VEGF read with Quantikine kit
T1 construct: mature
T1 sequence (P15692 other isoform, or with tags, fused parts or gaps): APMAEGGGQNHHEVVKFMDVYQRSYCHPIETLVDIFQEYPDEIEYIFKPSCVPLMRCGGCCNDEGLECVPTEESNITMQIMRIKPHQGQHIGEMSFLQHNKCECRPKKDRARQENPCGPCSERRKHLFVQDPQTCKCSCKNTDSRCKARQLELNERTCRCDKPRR
attribute_measured: Kd (nM)
Reply with just the number (in nM).

Prompt line: Please give the measured Kd for this binder: Variant 206 (Fab variant of Clone #201) (Fab, V domains shown, also called SI; No. 3) VH: EVQLVESGGGLVQPGGSLRLSCAASGFDLFHYSIHWVRQAPGKGLEWVAYIYPSYGYTYYADSVKGRFTISADTSKNTAYLQMNSLRAEDTAVYYCARHAWYYGWGLDYWGQGTLVTVSS VL: DIQMTQSPSSLSASVGDRVTITCRASQAAYGRVAWYQQKPGKAPKLLIYDASELYAGVPSRFSGSRSGTDFTLTISSLQPEDFATYYCQQRGWYLFTFGQGTKVEIKR
Response line: 0.014

Prompt line: Next: Fab 201 (Variant 201, produced from Clone #201) (Fab, V domains shown, also called Fab-F8.y) VH: EVQLVESGGGLVQPGGSLRLSCAASGFDLFHYSIHWVRQAPGKGLEWVAYIYPSYGYTYYADSVKGRFTISADTSKNTAYLQMNSLRAEDTAVYYCARHAWYYGWGLDYWGQGTLVTVSS VL: DIQMTQSPSSLSASVGDRVTITCRASQAAYGRVAWYQQKPGKAPKLLIYKASELYAGVPSRFSGSRSGTDFTLTISSLQPEDFATYYCQQRGWYLFTFGQGTKVEIKR
Response line: 0.025

Prompt line: Next: Variant 209 (Fab variant of Clone #201) (Fab, V domains shown) VH: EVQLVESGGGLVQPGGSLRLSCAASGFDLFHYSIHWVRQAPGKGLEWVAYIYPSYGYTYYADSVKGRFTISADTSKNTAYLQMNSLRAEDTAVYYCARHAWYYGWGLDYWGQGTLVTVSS VL: DIQMTQSPSSLSASVGDRVTITCRASQDAAYGRVAWYQQKPGKAPKLLIYKASELYAGVPSRFSGSRSGTDFTLTISSLQPEDFATYYCQQRGWYLFTFGQGTKVEIKR
Response line: 0.028

Prompt line: Next: Variant 220 (Fab variant of Clone #201) (Fab, V domains shown) VH: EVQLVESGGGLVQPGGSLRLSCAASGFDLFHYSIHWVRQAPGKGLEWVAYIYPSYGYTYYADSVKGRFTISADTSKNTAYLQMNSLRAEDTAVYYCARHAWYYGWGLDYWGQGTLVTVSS VL: DIQMTQSPSSLSASVGDRVTITCRASQAAYGDVAWYQQKPGKAPKLLIYKASELYAGVPSRFSGSRSGTDFTLTISSLQPEDFATYYCQQRGWYLFTFGQGTKVEIKR
Response line: 0.026

Cited source: patent US20220235123A1
